Where these numbers come from: PubChem BioAssay AID1645860

target: Ubiquitin carboxyl-terminal hydrolase 30 (Homo sapiens); test: inhibitors of human USP30 deubiquitinase (AID 1645860); conditions: purified USP30, Ub-rhodamine cleavage fluorescence; at 25 µM; stronger effect = higher value
Hit rate of the full screen: of about 47,000 compounds, about 2,500 (5.3%) were called active. The list comes from a sample in which actives are over-represented; it also holds close analogues and randomly drawn compounds.
I'd appreciate it if you could supply inhibition values for the items below.
// units = %; emit number, no label

Query string: Provide inhibition, system Ubiquitin carboxyl-terminal hydrolase 30 (Homo sapiens), entry Cc1nc(C)n(CC2CCCCN2Cc2ncc(C(C)(C)C)o2)n1 (configuration not stated)
Result string: -97.5

Query string: Provide Ubiquitin carboxyl-terminal hydrolase 30 (Homo sapiens) inhibition reading for O=C(Nc1cccc(-c2cccc(F)c2)c1)C1CCN(Cc2cccc3c2OCO3)CC1 .
Result string: 36.9

Query string: Give inhibition; test system Ubiquitin carboxyl-terminal hydrolase 30 (Homo sapiens); compound CN1C(=O)C(C)(C)COc2ccc(NS(=O)(=O)c3ccccc3Cl)cc21
Result string: 0.732

Query string: # return inhibition for Cc1c(C)n2c(SCC(=O)N(C)c3ccccc3)nnc2[nH]c1=O , test system: Ubiquitin carboxyl-terminal hydrolase 30 (Homo sapiens)
Result string: 6.75

Query string: Determine reported inhibition for O=C(CN1CCN(CC(=O)Nc2ccc3c(c2)OCO3)CC1)Nc1ccc(F)cc1 ; test system: Ubiquitin carboxyl-terminal hydrolase 30 (Homo sapiens).
Result string: -29.4

Query string: State, for Ubiquitin carboxyl-terminal hydrolase 30 (Homo sapiens), measured inhibition of the compound listed here: CCN1CCC2(CC1)OC(=O)C(C)=C2C(=O)NCc1ccccc1OC
Result string: 3.07

Query string: Report inhibition from Ubiquitin carboxyl-terminal hydrolase 30 (Homo sapiens) testing of O=C(c1cc2occc2c(Nc2ccc(F)cc2)n1)N1CCN(C(=O)c2ccco2)CC1
Result string: 32.6

Query string: Fill in inhibition for Cc1nc(-c2cccc(S(=O)(=O)Nc3ccccc3C)c2)no1 tested with Ubiquitin carboxyl-terminal hydrolase 30 (Homo sapiens).
Result string: -3.5

Query string: State inhibition (Ubiquitin carboxyl-terminal hydrolase 30 (Homo sapiens)) of Cc1ccc(NC(=O)c2ccc3c(c2)N(S(C)(=O)=O)CC3)cc1C .
Result string: -53.8

Query string: Would you please give the reported inhibition of O=C(Nc1nnc(-c2cccs2)o1)C1CCCCC1 with Ubiquitin carboxyl-terminal hydrolase 30 (Homo sapiens)?
Result string: 10.9

Query string: System Ubiquitin carboxyl-terminal hydrolase 30 (Homo sapiens). Read-out inhibition. Item COCCn1cnc2nnc3ccc(C(=O)NC(C)C)cc3c21 . Report value.
Result string: -9.87

Query string: Under Ubiquitin carboxyl-terminal hydrolase 30 (Homo sapiens): report inhibition of CN(C)C(=O)C1CN(C(=O)c2n[nH]c3c2CCCC3)CC12CCOCC2 (configuration not stated) .
Result string: -5.3

Query string: Report the value of inhibition obtained on Ubiquitin carboxyl-terminal hydrolase 30 (Homo sapiens) for COc1ccccc1NC(=O)c1cccc(S(=O)(=O)N2CCc3ccccc32)c1 .
Result string: -7.37

Query string: State, for Ubiquitin carboxyl-terminal hydrolase 30 (Homo sapiens), measured inhibition of the compound listed here: Cn1ncc2c1CCCN(C(=O)Cc1ccccc1F)C2
Result string: 10.7

Query string: Give inhibition for O=C(CN1C(=O)c2cccnc2Sc2ccccc21)Nc1ccc(F)cc1F tested on Ubiquitin carboxyl-terminal hydrolase 30 (Homo sapiens).
Result string: -96.8

Query string: # lookup: Ubiquitin carboxyl-terminal hydrolase 30 (Homo sapiens) inhibition, key = O=C(Nc1ccc(Oc2ccccc2F)cc1)C1CCN(Cc2cccc(O)c2)CC1
Result string: 23

Query string: Given COc1ccc2ccccc2c1S(=O)N1CCN(c2ccccc2F)CC1 (configuration not stated) , report its inhibition on Ubiquitin carboxyl-terminal hydrolase 30 (Homo sapiens).
Result string: 1.36

Query string: # return inhibition of CNc1nc2c(c(=O)n1C)CN(S(=O)(=O)c1ccccc1)CC2 (system: Ubiquitin carboxyl-terminal hydrolase 30 (Homo sapiens))
Result string: 11.5

Query string: Under Ubiquitin carboxyl-terminal hydrolase 30 (Homo sapiens): report inhibition of CC(=O)N1C[C@H]2C3(CCN(C(=O)c4cc(C)on4)CC3)CC[C@@]2(C(=O)N(C)C)C1 .
Result string: 0.149

Query string: Quote inhibition with test system Ubiquitin carboxyl-terminal hydrolase 30 (Homo sapiens) for Cc1cccc(NC(=O)Nc2ccc3c(c2)N(S(=O)(=O)c2ccccc2)CC3)c1C
Result string: 30.5

Query string: Using Ubiquitin carboxyl-terminal hydrolase 30 (Homo sapiens) as the test system, report measured inhibition of O=C(CN1C(=O)C2CCCC2=Nc2ccccc21)Nc1ccc(F)cc1F (configuration not stated) .
Result string: 32.2

Query string: Give reported inhibition for Cc1cc(C2CN(C(=O)c3cn4c(C)cccc4n3)CCO2)nc(C)n1 (configuration not stated) (Ubiquitin carboxyl-terminal hydrolase 30 (Homo sapiens))
Result string: 2.35
